tgt: Dimeric Monkey Ang-2FD conjugated to human IgG1 (monkey (Macca fascicularis))
Sequence (chain, as listed by the source limits assumed): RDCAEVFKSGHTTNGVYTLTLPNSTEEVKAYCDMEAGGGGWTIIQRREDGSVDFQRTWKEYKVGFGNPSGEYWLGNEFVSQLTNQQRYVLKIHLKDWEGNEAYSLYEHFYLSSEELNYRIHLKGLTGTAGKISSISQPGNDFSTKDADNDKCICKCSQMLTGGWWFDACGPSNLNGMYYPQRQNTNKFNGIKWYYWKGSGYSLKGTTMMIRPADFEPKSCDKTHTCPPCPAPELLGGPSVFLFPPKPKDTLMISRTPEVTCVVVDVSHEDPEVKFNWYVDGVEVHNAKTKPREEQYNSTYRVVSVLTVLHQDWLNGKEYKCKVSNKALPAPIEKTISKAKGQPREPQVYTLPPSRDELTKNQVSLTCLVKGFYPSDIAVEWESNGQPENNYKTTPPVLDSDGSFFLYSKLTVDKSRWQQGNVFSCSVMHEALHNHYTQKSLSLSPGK
protocol: SPR, antibody captured, room temperature
Overview of recorded Kd for various binders
Kindly answer with a numeric value in nM, unit omitted.

Query: I have this binder here, H2M742N (antibody, V domains shown) VH: DVQLLESGGDLVQPGGSLRLSCEASGFTFRNYVMIWVRQAPGKGLEWVSGISNSGGTTHYTDSVKGRFTISRDNSKNTLYLQINSLRAEDTAVYYCAKGYLDTSLIEGNWFDPWGQGTLVTVSS VL: NIVMTQSPLSLPVTPGEPASISCRSSQSLLHSNGFNYLNWFLQKPGQSPQLLIYLGSNRASGVPDKFSGSGSGTDFTLNINRVEAEDVGIYFCMQTLQTPLTFGGGTKVEIK , and I need its recorded Kd.
Response: 6.17

Query: Look up Kd: H2M743N (antibody, V domains shown) VH: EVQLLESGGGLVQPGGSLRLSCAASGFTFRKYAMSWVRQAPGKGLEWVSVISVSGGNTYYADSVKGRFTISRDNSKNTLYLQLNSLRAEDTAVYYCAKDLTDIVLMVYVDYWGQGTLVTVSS VL: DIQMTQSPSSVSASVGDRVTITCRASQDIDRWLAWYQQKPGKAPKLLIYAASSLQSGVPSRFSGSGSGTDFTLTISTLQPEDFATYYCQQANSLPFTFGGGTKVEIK
Response: 0.234
